Cited source for all entries: patent US20230340018A1

Give measured CC50 at 72 h for each item. Keep answers brief.
# PROTOCOL DESCRIPTION: in vitro
# COND: human

Request: Entry `COc1cccc2[nH]c(C(=O)N[C@H](C(=O)N[C@@H](CN3CCNC3=O)C(=O)C(=O)Nc3ccccc3)C3CCCCC3)cc12` needs its CC50 at 72 h filled in; supply it.
Result: > 100 µM

Request: Entry `CC(C)C[C@H](NC(=O)c1cc2ccccc2[nH]1)C(=O)N[C@@H](Cc1ccc[nH]c1=O)C(=O)C(=O)NCc1ccccc1` needs its CC50 at 72 h filled in; supply it.
Result: > 100 µM

Request: Entry `CC(C)C[C@H](NC(=O)c1cc2ccccc2[nH]1)C(=O)N[C@@H](CN1CCNC1=O)C(=O)C(=O)NCC1CC1` needs its CC50 at 72 h filled in; supply it.
Result: > 100 µM

----------
# TESTED TARGET: SARS-CoV-2 main protease Mpro (Severe acute respiratory syndrome coronavirus 2)
# PROTOCOL DESCRIPTION: FRET-based Mpro enzyme activity assay
# COND: recombinant Mpro, 30 min pre-incubation, 0 - 200 µM; read-out: Mpro enzyme inhibition IC50
pIC50: −log10 of the molar value.
MEASUREMENT KIND: pIC50

Request: Entry `COc1cccc2[nH]c(C(=O)N[C@@H](CC(C)C)C(=O)N[C@@H](CN3CCNC3=O)C(=O)C(=O)NCC3CC3)cc12` needs its pIC50 filled in; supply it.
Result: ≥ 5.70

Request: Entry `CC(C)C[C@H](NC(=O)OC(C)(C)C)C(=O)N[C@@H](Cc1ccc[nH]c1=O)C(=O)C(=O)NCc1ccccc1` needs its pIC50 filled in; supply it.
Result: 4.70 to 5.70

Request: Entry `CC(C)C[C@H](NC(=O)c1cc2ccccc2[nH]1)C(=O)N[C@@H](CN1CCNC1=O)C(=O)C(=O)NCC1CC1` needs its pIC50 filled in; supply it.
Result: 4.70 to 5.70
